Where do these numbers come from? They come from patent US20230287044A1.

System: VRE (E. faecalis) ATCC 51575
Type: cell-based, Enterococcus faecalis
Settings: ATCC 51575, 18 h
Square brackets hold non-standard residues; d marks the D form. Peptide text beside a SMILES is read from it.
Reported MIC VRE (E. faecalis) ATCC 51575 values for the following compounds.
outcomeMeasure: MIC VRE (E. faecalis) ATCC 51575

{"columns": ["compound", "systemUnderTest", "observedValue"],
 "data": [
  ["CC(C)[C@@H](NC(=O)[C@@H](Cc1c[nH]c2ccccc12)NC(=O)[C@@H](CCCNC(=N)N)NC(=O)[C@@H](CCCNC(=N)N)NC(=O)[C@H](N)CCCNC(=N)N)C(=O)N[C@H](Cc1c[nH]c2ccccc12)C(=O)N[C@@H](C(=O)N[C@@H](C(=O)N[C@H](Cc1c[nH]c2ccccc12)C(=O)N[C@H](CCCCN)C(N)=O)C(C)C)C(C)C [KSH57, rrrwvwvvwk] (H-[dR][dR][dR][dW][dV][dW][dV][dV][dW][dK]-NH2; N-terminus assumed)", "VRE (E. faecalis) ATCC 51575", "20 µM"],
  ["CC[C@@H](C)[C@@H](NC(=O)[C@@H](Cc1c[nH]c2ccccc12)NC(=O)[C@H](NC(=O)[C@@H](CC(C)C)NC(=O)[C@H](N)Cc1c[nH]c2ccccc12)[C@H](C)CC)C(=O)NCC(=O)N[C@H](CC(C)C)C(=O)N[C@H](CCCNC(=N)N)C(=O)N[C@H](CCCCN)C(=O)N[C@H](CCCCN)C(=O)N[C@H](CCCNC(=N)N)C(N)=O [KSH I, wliwiglrkk r] (H-[dW][dL][dI][dW][dI]G[dL][dR][dK][dK][dR]-NH2; N-terminus assumed)", "VRE (E. faecalis) ATCC 51575", "2.5 µM"]
]}

###

Tested on: VRE (E. faecalis) ATCC 51575
Type: cell-based, Enterococcus faecalis
Conditions: ATCC 51575, 18 h
Source text: The minimum growth inhibitory concentrations of the antibacterial peptides of the present invention weremeasured, and the results are shown in Table 3 below. […]
Square brackets hold non-standard residues; d marks the D form. Peptide text beside a SMILES is read from it.
outcomeMeasure: MIC VRE (E. faecalis) ATCC 51575 (µM)

{"columns": ["compound", "outcomeMeasure", "unitDescriptor", "inequalityOperator", "observedValue"],
 "data": [
  ["CC[C@@H](C)[C@@H](NC(=O)[C@@H](Cc1c[nH]c2ccccc12)NC(=O)[C@@H](C)NC(=O)[C@@H](C)NC(=O)[C@H](N)Cc1c[nH]c2ccccc12)C(=O)NCC(=O)N[C@H](CC(C)C)C(=O)N[C@H](CCCNC(=N)N)C(=O)N[C@H](CCCCN)C(=O)N[C@H](CCCNC(=N)N)C(=O)N[C@H](CCCCN)C(N)=O [KSH77, waawiglrkrk] (H-[dW][dA][dA][dW][dI]G[dL][dR][dK][dR][dK]-NH2; N-terminus assumed)", "MIC VRE (E. faecalis) ATCC 51575", "µM", ">", 10],
  ["CC(C)[C@@H](NC(=O)[C@@H](Cc1c[nH]c2ccccc12)NC(=O)[C@@H](CCCNC(=N)N)NC(=O)[C@@H](CCCNC(=N)N)NC(=O)[C@H](N)CCCNC(=N)N)C(=O)N[C@@H](C(=O)N[C@@H](C(=O)N[C@@H](C(=O)N[C@@H](C(=O)N[C@H](Cc1c[nH]c2ccccc12)C(N)=O)C(C)C)C(C)C)C(C)C)C(C)C [KSH86, rrrwvvvvvw] (H-[dR][dR][dR][dW][dV][dV][dV][dV][dV][dW]-NH2; N-terminus assumed)", "MIC VRE (E. faecalis) ATCC 51575", "µM", "=", 1.25],
  ["CC(C)[C@@H](NC(=O)[C@@H](Cc1c[nH]c2ccccc12)NC(=O)[C@@H](CCCNC(=N)N)NC(=O)[C@@H](CCCNC(=N)N)NC(=O)[C@H](N)CCCNC(=N)N)C(=O)N[C@H](Cc1c[nH]c2ccccc12)C(=O)N[C@@H](C(=O)N[C@@H](C(=O)N[C@H](Cc1c[nH]c2ccccc12)C(=O)N[C@H](Cc1c[nH]c2ccccc12)C(N)=O)C(C)C)C(C)C [KSH81, rrrwvwvvww] (H-[dR][dR][dR][dW][dV][dW][dV][dV][dW][dW]-NH2; N-terminus assumed)", "MIC VRE (E. faecalis) ATCC 51575", "µM", "=", 1.25],
  ["CC(C)[C@@H](NC(=O)[C@H](N)Cc1c[nH]c2ccccc12)C(=O)N[C@@H](C(=O)N[C@H](Cc1c[nH]c2ccccc12)C(=O)N[C@H](Cc1c[nH]c2ccccc12)C(=O)N[C@@H](C(=O)N[C@H](CCCNC(=N)N)C(=O)N[C@H](CCCNC(=N)N)C(=O)N[C@H](CCCNC(=N)N)C(N)=O)C(C)C)C(C)C [KSH40, wvvwwvrrr] (H-[dW][dV][dV][dW][dW][dV][dR][dR][dR]-NH2; N-terminus assumed)", "MIC VRE (E. faecalis) ATCC 51575", "µM", "=", 1.25]
]}
